Biological target: 3CL Protease (Severe acute respiratory syndrome coronavirus 2, UniProt P0DTD1)
Experiment: 3CL Protease enzymatic activity assay (BPS Bioscience Assay Kit #78043-1, fluorescence)
Assay type: biochemical, SARS-CoV-2
Conditions: Table B; comparison with known compound K; read-out: IC50, nM (3CL Protease enzymatic activity, comparative data)
Method: For determination of 3CL Protease enzymatic activity was used Assay Kit of BPS Bioscience, San Diego, CA (Catalog #78043-1). […] • 8) Preincubate for 30 min at room temperature with slow shaking. • 9) Dilute the 25 μl of 3CL Protease substrate (10 mM) in 1.25 ml of the Assay Buffer containing DTT, to make a 200 M solution. […] The fluorescence intensity can also be measured kinetically. […]
MEASURED ATTRIBUTE: IC50 (nM)
One number for each entry, in nM.

Solved cases (3 shown):
| COMPOUND | IC50, nM |
| --- | --- |
| CC(C)(C)[C@H](NC(=O)C(F)(F)F)C(=O)N1C[C@H]2C([C@H]1C(=O)NC(C#N)Cc1cc3cc(Cl)ccc3[nH]c1=O)C2(C)C (stereo in doubt) | 89 |
| CC(C)(C)[C@H](NC(=O)C(F)(F)F)C(=O)N1C[C@H]2C([C@H]1C(=O)NC(C#N)Cc1cc3c([nH]c1=O)CCOC3)C2(C)C (stereo in doubt) | 180 |
| CC(C)(C)[C@H](NC(=O)C(F)(F)F)C(=O)N1C[C@H]2C([C@H]1C(=O)NC(C#N)Cc1ccc[nH]c1=O)C2(C)C (stereo in doubt) | 147 |

stdin: Field: IC50 (3CL Protease (Severe acute respiratory syndrome coronavirus 2, UniProt P0DTD1)). Entry: CC(C)(C)[C@H](NC(=O)C(F)(F)F)C(=O)N1C[C@H]2[C@@H]([C@H]1C(=O)N[C@H](C#N)C[C@@H]1CCCNC1=O)C2(C)C [K, reference compound]
stdout: 1290
